- Test system: NCI-H322M lung
- Method: NCI-60 one-dose screen, 48 h (100 = growth as untreated, 0 = no growth, -100 = all killed)
- Settings: 10 µM unless noted
Compounds without any hit were thinned out: in the full panel of roughly 83,000, 20% have a hit. Activity calls are given as the source filed them. Rule for the calls: active = growth percent below 10; inactive = the rest.
Recorded growth values for a group of compounds are listed next.

Take a look at these entries with their results.
C=C1C(=O)O[C@H]2[C@H]1CC/C(CNC(=O)/C=C/c1ccccc1)=C\CC[C@@]1(C)O[C@@H]21 :: 71.9% (inactive)
COc1ccc(/C=C2\Oc3cc(OCCCCCN4CCCCC4)ccc3C2=O)cc1OC :: 97.9% (inactive)
CCOC(=O)C1=C(CCl)NC(=O)NC1c1ccc2c(c1)OCO2 (stereo not given) :: 88.1% (inactive)
NC(=O)Nc1ccc(-n2cnc3cc(-c4ccc(O)cc4)ccc32)cc1 :: 101% (inactive)

Proceed to the following item.
Exam item: Fill blank: measured growth of the compound "CC(=O)c1ccc(NS(=O)(=O)c2cccc(C(=O)Nc3ccc(Br)cc3)c2)cc1" is ____.
Marked response: 89% [25 µM] (inactive)

---

- Test system: OVCAR-5 ovarian
- Method: NCI-60 one-dose screen, 48 h
- Settings: 10 µM unless noted
The panel holds about 83,000 compounds, 20% with a hit somewhere; the sample as a whole holds those more often. The source made the active and inactive calls. The calls were made as follows: active = growth percent below 10; inactive = the rest.
Return exactly one item of active, inactive

For orientation, consider the following solved cases.
COc1ccc(OC)c(CCn2cncc2-c2c[nH]c3ccccc23)c1 :: inactive
O=C(O)c1ccc2c(c1)C(=O)N(Cc1ccccc1)C2=O :: inactive

Exam item: Called result for "COc1ccc(CNCCN2C(=O)c3ccc4c5c(ccc(c35)C2=O)C(=O)N(CCNCc2ccc(OC)c(OC)c2OC)C4=O)c(OC)c1OC"
Marked response: active

Exam item: Called result for "CCCOC(=O)N[C@H]1CCc2c(Cl)c(OC)c(OC)c(OC)c2-c2ccc(SC)c(=O)cc21"
Marked response: inactive

Exam item: Called result for "COc1cc2oc(-c3cccc(C(=O)Nc4ccc(Br)cc4)c3)cc(=O)c2c(OC)c1OC"
Marked response: inactive

Exam item: Called result for "O=C(Cn1c[n+](CC(=O)c2ccc([N+](=O)[O-])cc2)c2ccccc21)Nc1cccc2cccnc12"
Marked response: inactive

Exam item: Called result for "COc1cccc(-c2nc3occn3c2-c2ccnc(NCCCNS(=O)(=O)c3ccc(C(F)(F)F)cc3)n2)c1"
Marked response: inactive

Exam item: Called result for "C=C1C(=O)O[C@H]2[C@H]1CC/C(COC(=O)NCc1c[nH]c3ccc(Br)cc13)=C\CC[C@@]1(C)O[C@@H]21"
Marked response: active

Exam item: Called result for O=C(N/N=C/c1ccc(Oc2ccccc2)cc1)c1cnn2c1NC(c1ccccc1)C2 (stereo not drawn)
Marked response: inactive

Exam item: Called result for "Nc1n[nH]c2cccc(C#Cc3cccc(C(=O)Nc4cc(CN5CCOCC5)cc(C(F)(F)F)c4)c3)c12"
Marked response: inactive

Exam item: Called result for "C=C1C(=O)O[C@H]2[C@H]1CC/C(CNS(=O)(=O)c1cccc3ccccc13)=C\CC[C@@]1(C)O[C@@H]21"
Marked response: inactive

---

- System: 786-0 renal
- Method: NCI-60 one-dose screen, 48 h
- Settings: 10 µM unless noted
The panel holds about 83,000 compounds, 20% with a hit somewhere; the sample as a whole holds those more often. Calls of active or inactive are those of the source. How the source made its calls: active means growth percent below 10; inactive means the rest.
Return exactly one item of active, inactive

For orientation, consider the following solved cases.
O=C1OC(Cc2ccccc2)C1c1ccccc1 (stereo unspecified) :: inactive
N#Cc1c(-c2ccccc2)nc2c(c(-c3ccccc3)nn2-c2ccccc2)c1-c1ccc(O)cc1 :: active
C=C(C)[C@@H]1CC[C@]2(CN)CC[C@]3(C)[C@H](CC[C@@H]4[C@@]5(C)CCCNC(C)(C)[C@@H]5CC[C@]43C)[C@@H]12 :: active
O=C1Nc2ccc(F)cc2/C1=C\c1c(-c2ccccc2)nc2ccccn12 :: inactive

Exam item: Called result for "Cc1nn(-c2ccccc2)c(Cl)c1/C=C/C(=O)c1ccc(F)cc1"
Marked response: inactive

Exam item: Called result for "COc1ccc2c(c1)oc1c(C)c3c(c(C)c12)C(=O)N(N)C3=O"
Marked response: active

Exam item: Called result for "Clc1ccc(-c2ccc(CNCC3CCNCC3)o2)c(-c2ccccc2)c1"
Marked response: active

Exam item: Called result for "CCN(Cc1ccccc1)c1ccc(C=O)cc1"
Marked response: inactive

Exam item: Called result for O=C(N/N=C/c1ccc(Oc2ccccc2)cc1)c1cnn2c1NC(c1ccccc1)C2 (stereo unspecified)
Marked response: inactive

Exam item: Called result for "CCN1Cc2nc3sc(C)c(C)c3c(=O)n2C=C1C"
Marked response: inactive

Exam item: Called result for "O=C(Nc1cccc(C(=O)N2CCc3ccc(Cl)cc32)c1)c1ccco1"
Marked response: inactive

Exam item: Called result for "COc1ccc(/C=C/c2nc(Nc3ccc(S(=O)(=O)NC(C)=O)cc3)c3ccccc3n2)cc1"
Marked response: inactive

Exam item: Called result for "COc1cc(/C=N/O)nc(-c2ccccn2)c1"
Marked response: inactive

Exam item: Called result for "COc1ccc(CC(C)=C(c2ccc(OCCN3CCCCCC3)cc2)c2ccc(OCCN3CCCCCC3)cc2)cc1"
Marked response: active

Exam item: Called result for "COc1ccc(OC)c(-c2cc(-c3ccc(Cl)cc3)c3c(N)c(C(=O)c4ccc(Cl)cc4)sc3n2)c1"
Marked response: inactive

Exam item: Called result for "c1ccc(-c2cn3c(ccc4ccccc43)n2)cc1"
Marked response: inactive

Exam item: Called result for "OCc1cnc2ccccc2c1NC1CCCCCC1"
Marked response: inactive

Exam item: Called result for "O=C1c2ccc3c4c(ccc(c24)C(=O)N1CCCNCc1ccccc1)C(=O)N(CCCNCc1ccccc1)C3=O"
Marked response: active

Exam item: Called result for "COc1ccccc1NS(=O)(=O)c1cccc(C(=O)Nc2ccc(Br)cc2)c1"
Marked response: inactive

Exam item: Called result for Cc1ccc(-n2nc3c(c(C#N)c2=O)CC(c2ccccc2[N+](=O)[O-])C([N+](=O)[O-])=C3O)cc1 (stereo unspecified)
Marked response: inactive

Exam item: Called result for "Nc1c(S(=O)(=O)O)cc2c3c(cccc13)C(=O)OC2=O"
Marked response: inactive

---

- System: T-47D breast
- Method: NCI-60 one-dose screen, 48 h (100 = growth as untreated, 0 = no growth, -100 = all killed)
- Settings: 10 µM unless noted
About 83,000 compounds went through this panel and 20% of them were active in at least one assay; those are over-represented in the sample as a whole.
Recorded growth values for a group of molecules are listed next.
Kindly provide the numeric value in % only, without the unit symbol.

COc1ccc(C/C(C)=C(/c2ccc(OCCCN(C)C)cc2)c2ccc(OC(C)=O)cc2)cc1 :: 56.4
CC(Oc1ccc(C(=O)O)cc1C(F)(F)F)c1ccc(Oc2ccccc2)cn1 (stereo unspecified) :: 100
Fc1ccc(-c2cn3c(nc4ccccc43)c(-c3ccccc3)n2)cc1 :: 86.2
COc1ccc(N2CCN(c3ccc(NC4=C(Cl)C(=O)c5ncccc5C4=O)cc3)CC2)cc1 :: 33.2
CCOc1cccc(-c2nc(N)nc(Nc3ccccc3SSc3ccccc3Nc3nc(N)nc(-c4cccc(OCC)c4)n3)n2)c1 :: 44.5

Exam item: Hello, I am looking for reported growth with T-47D breast for "CCN(CC)c1ccc(C(=O)c2ccccc2)cc1" . Could you help?
Marked response: 83.3

Exam item: Hello, I am looking for reported growth with T-47D breast for "CN(C)c1ccc(Nc2c3ccccc3nc3cc(NC(=O)CCN4CCCC4)ccc23)cc1" . Could you help?
Marked response: 12.1

Exam item: Hello, I am looking for reported growth with T-47D breast for "COc1cc2c(=O)n(CCN)c3c4cc5c(cc4ccc3c2cc1OC)OCO5" . Could you help?
Marked response: 27.1

Exam item: Hello, I am looking for reported growth with T-47D breast for "CCCCCC(=O)Oc1ccc(/C(=C(\C)c2ccccc2)c2ccc(OCCN3CCCCC3)cc2)cc1" . Could you help?
Marked response: 37.3

---

- System: OVCAR-5 ovarian
- Method: NCI-60 one-dose screen, 48 h (100 = growth as untreated, 0 = no growth, -100 = all killed)
- Settings: 10 µM unless noted
This is part of a sample that, as a whole, favours compounds with a hit. Of some 83,000 tested, about 20% had one in any assay.
Recorded growth values for a group of compounds are listed next.
Kindly provide the numeric value in % only, without the unit symbol.

Take a look at these entries with their results.
Cc1cnc(C(=O)Nc2nc3ccc(S(=O)(=O)Nc4ccc(C(C)(C)C)cc4)cc3[nH]2)cn1 :: 34.8
Cc1ccc(-c2nc3ccccn3c2/C=C2/C(=O)Nc3cc(Cl)ccc32)cc1 :: 101

Exam item: Hello, I am looking for reported growth with OVCAR-5 ovarian for COc1cc(C2C3CC4CCCC[C@H]4N3[C@@]3(C(=O)Nc4cc(Cl)ccc43)C2C(=O)c2nc3ccccc3[nH]2)cc(OC)c1OC (some centres undefined) . Could you help?
Marked response: 73.7

Exam item: Hello, I am looking for reported growth with OVCAR-5 ovarian for "O=C(Nc1ccc(-c2ccc3c(c2)NC(=O)/C3=C\c2ccc[nH]2)cc1)NC1CC1" . Could you help?
Marked response: 105

Exam item: Hello, I am looking for reported growth with OVCAR-5 ovarian for "COc1ccc(-c2nc3sccn3c2/C=C/C(=O)c2ccc3c(c2)OCO3)cc1" . Could you help?
Marked response: 108

Exam item: Hello, I am looking for reported growth with OVCAR-5 ovarian for "N#Cc1c(-c2cccc([N+](=O)[O-])c2)nc(SCC(=O)c2ccc(Cl)cc2)[nH]c1=O" . Could you help?
Marked response: 102

Exam item: Hello, I am looking for reported growth with OVCAR-5 ovarian for "CC(C)N1C(=O)/C(=C2\SC(=S)N(C(C)C)C2=O)SC1=S" . Could you help?
Marked response: 88

Exam item: Hello, I am looking for reported growth with OVCAR-5 ovarian for "COc1ccccc1/C(C)=N/NC(=O)CSc1nc2ccccc2c(=O)n1Cc1ccc(S(N)(=O)=O)cc1" . Could you help?
Marked response: 97.9

Exam item: Hello, I am looking for reported growth with OVCAR-5 ovarian for "CCOC(=O)c1cc(C(=O)c2cc(OC)cc(OC)c2)n2ccc3ccccc3c12" . Could you help?
Marked response: 98
